pIC50 overview
Tested on: MDA-MB-231
Test: Breast cancer cell viability, 48 hours, MTA assay
Assay type: cell-based
Conditions: Homo sapiens; MDA-MB-231, single agent, 48 hours; read-out: IC50
pIC50: −log10 of the molar value.
Measured Quantity: pIC50

> print(dat)
                               smiles.entry  measured.quantity  value.observed
1  COc1cccc2c1C(=O)c1c(O)c3c(c(O)c1C2=O)C[C@@](O)(C(=O)CO)C[C@@H]3O[C@H]1C[C@H](N)[C@H](O)[C@H](C)O1              pIC50            6.14
2  CS(=O)(=O)CCNCc1ccc(-c2ccc3ncnc(Nc4ccc(OCc5cccc(F)c5)c(Cl)c4)c3c2)o1              pIC50            5.14
3  CS(=O)(=O)N1CCN(Cc2cc3nc(-c4cccc5[nH]ncc45)nc(N4CCOCC4)c3s2)CC1              pIC50            5.77
